Assay: Displacement of [125I]-Ang2 from AT2 receptor in porcine uterine myometrial membranes after 1.5 hrs by gamma scintillation gamma scintillation counting analysis
Design: species or system Sus scrofa
VALUE_TYPE: Ki (nM)
Kindly answer with a numeric value in nM, unit omitted.

For the compound shown here, CCCCOC(=O)NS(=O)(=O)c1ccc2c(c1-c1cccc(Cn3ccnc3)c1)CCC2C(C)C (single isomer, unassigned; (-)) , give the reported Ki.
223

For the compound shown here, CCCCOC(=O)NS(=O)(=O)c1ccc2c(c1-c1ccc(Cn3ccnc3)cc1)CCC2C(C)C (single isomer, unassigned; (-)) , give the reported Ki.
127

For the compound shown here, CCCCOC(=O)NS(=O)(=O)c1cc2c(cc1-c1cccc(Cn3ccnc3)c1)CCC2C(C)C (single isomer, unassigned; (-)) , give the reported Ki.
7
